test system: twelve prevalent HLA-A allotypes; test: Peptide competitive binding assay, whole panel; set-up: species or system human; details: high = IC50<5μM
Residues, ends and D or L forms follow the SMILES beside them.
readout-kind: number of HLA-A allotypes bound with high affinity

# compound, tgt, assay-result
data = [
    ("CSCC[C@H](NC(=O)[C@@H](N)CCSC)C(=O)N[C@@H](Cc1c[nH]c2ccccc12)C(=O)N[C@@H](Cc1ccc(O)cc1)C(=O)N[C@@H](Cc1c[nH]c2ccccc12)C(=O)NCC(=O)N1CCC[C@H]1C(=O)N[C@@H](CO)C(=O)N[C@@H](CC(C)C)C(=O)O [Epitope P72]", "twelve prevalent HLA-A allotypes", "three"),
    ("CC(C)C[C@H](NC(=O)[C@@H](N)Cc1ccccc1)C(=O)N[C@@H](Cc1c[nH]c2ccccc12)C(=O)N[C@@H](CCC(=O)O)C(=O)N[C@@H](Cc1c[nH]c2ccccc12)C(=O)N[C@@H](C)C(=O)N[C@@H](CO)C(=O)N[C@H](C(=O)N[C@@H](CCCNC(=N)N)C(=O)O)C(C)C [Epitope P78] (H-FLWEWASVR-OH; N-terminus and C-terminus assumed)", "twelve prevalent HLA-A allotypes", "two"),
    ("CSCC[C@H](NC(=O)[C@@H](N)CO)C(=O)N[C@@H](Cc1ccc(O)cc1)C(=O)N1CCC[C@H]1C(=O)N[C@@H](CO)C(=O)N[C@@H](CS)C(=O)N[C@@H](CS)C(=O)N[C@@H](CS)C(=O)N[C@H](C(=O)N[C@@H](CCCCN)C(=O)O)[C@@H](C)O [Epitope P13] (H-SMYPSCCCTK-OH; N-terminus and C-terminus assumed)", "twelve prevalent HLA-A allotypes", "three"),
]
